# assay: Aqueous solubility of Form B in different pH buffers
# Assay type: physicochemical
# settings: aqueous buffer, thermodynamic from solid; Buffer solution pH 4.5; pH (buffer) measured starting conditions 4.5; pH (buffered sample) 5.7; read-out: Solubility (mg/ml mean of triplicates)
Counter-ions that a name gives are not always drawn.
measured_metric: solubility
Quote the value and follow it with the unit of measurement.

Qu. I'd like to know its solubility. The compound in question is NC(=O)OC[C@H](N)Cc1ccccc1 [Form B, hydrochloride]
Ans. 733 mg/mL

Where do the numbers come from? From patent US12384743B2.
